System: MOLT-4
Assay: NCI tumour cell line growth inhibition, 48 h
Active and inactive are the calls of the source. No stated cut-off is given here; in the data, active = GI50 up to about 1.1 µM and inactive = higher.
Possible outcomes: active, inactive

>  <compound>
CSC1=C(SC)C(=O)c2cn(C)c(=O)cc2C1=O

>  <label-value>
active

$$$$
>  <compound>
COC(=O)[C@@H](O)[C@]1(C(=O)OC)C2O[C@@H](OC)[C@@H]1CCCCCC[C@H]2O

>  <label-value>
inactive

$$$$
>  <compound>
CC(=O)Oc1c2c(c(O)c3ccccc13)C(n1cnc3c(ncn3C3OC(CO)C4OC(C)(C)OC43)c1=N)CCC2 (stereo not given)

>  <label-value>
inactive

$$$$
>  <compound>
Oc1c(Br)cc(/C=C/c2cccc(/C=C/c3cc(Br)c(O)c(Br)c3)n2)cc1Br

>  <label-value>
inactive

$$$$
>  <compound>
COc1ccc(/N=C/C=C/Nc2ccc(OC)cc2)cc1

>  <label-value>
inactive

$$$$
